Source of measurements: paper PMC4240550

- Target Under Test: LecB (Pseudomonas aeruginosa, UniProt Q9HYN5)
- Sequence (Q9HYN5 entry or part of it): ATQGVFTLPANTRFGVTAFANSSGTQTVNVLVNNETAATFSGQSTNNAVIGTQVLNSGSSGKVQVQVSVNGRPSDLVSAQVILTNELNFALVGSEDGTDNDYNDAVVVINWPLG
- Stated Conditions: 25°C; mean ± SD of minimum three titrations (5: indirect titration with 3, two titrations)
If the reported -TΔS equals or exceeds -0.3 kcal/mol, assign satisfied. If not, assign not satisfied.

Consider the worked cases shown below.
OC[C@H]1OC[C@@H](O)[C@@H](O)[C@@H]1O [compound 5, 1-deoxy D-mannose]
not satisfied
C[C@@H]1O[C@H](CO)[C@@H](O)[C@H](O)[C@@H]1O [compound 4, β-L-fucopyranosyl methanol]
not satisfied
OC1[C@H](O)COC[C@H]1O [compound 7, 1-deoxy D-arabinose]
satisfied

Q) Has CC1OCC(O)C(O)C1O [compound 3, 1-deoxy L-fucose] a recorded -TΔS greater than or equal to -0.3 kcal/mol?
A) satisfied

---

- Target Under Test: LecB (Pseudomonas aeruginosa, UniProt Q9HYN5)
- Assay Overview: biochemical
Quick list: Kd per entry.
State the answer as a number, implicitly in µM.

Example cases with answers are listed next.
CC1OCC(O)C(O)C1O [compound 3, 1-deoxy L-fucose]
0.77
C[C@@H]1O[C@H](CO)[C@@H](O)[C@H](O)[C@@H]1O [compound 4, β-L-fucopyranosyl methanol]
16.1
OC[C@H]1OC[C@@H](O)[C@@H](O)[C@@H]1O [compound 5, 1-deoxy D-mannose]
69.1
C[C@@H]1O[C@H](C)[C@@H](O)[C@H](O)[C@@H]1O [compound 6, β-L-fucopyranosyl methane]
16.9

Q) Fill in the blank: the reported Kd of OC1[C@H](O)COC[C@H]1O [compound 7, 1-deoxy D-arabinose] is ____.
A) 4.46

---

pIC50 overview
- Target Under Test: LecB (Pseudomonas aeruginosa)
- Assay Overview: biochemical
- Stated Conditions: IC50, fluorescence polarization, TBS/Ca pH 7.4; mean ± SD of minimum three independent measurements of triplicates
Please treat pIC50 as minus the base-10 logarithm of the molar concentration.

Look over these answered cases.
CC1OCC(O)C(O)C1O (stereo not drawn)
5.80
CO[C@@H]1OC[C@@H](O)[C@@H](O)[C@@H]1O [compound 13, methyl β-D-arabinoside]
5.47

Now, please, on to the next compound.
Q) GET /values?readout=pIC50&item= `OC[C@H]1OC[C@@H](O)[C@@H](O)[C@@H]1O`
A) 3.98

---

- Target Under Test: LecB (Pseudomonas aeruginosa)
- Stated Conditions: 25°C; mean ± SD of minimum three titrations (5: indirect titration with 3, two titrations)
Measured ΔH accompanies every entry in the list below.
# value in kcal/mol; strip the unit string

Guide cases for ΔH, answers given:
CC1OCC(O)C(O)C1O (centres unmarked)
-8.68
OC[C@H]1OC[C@@H](O)[C@@H](O)[C@@H]1O
-4.28
C[C@@H]1O[C@H](C)[C@@H](O)[C@H](O)[C@@H]1O
-6.19

Q) Name the recorded ΔH for `OC1[C@H](O)COC[C@H]1O` .
A) -8.44

Q) Could you do the same for `C[C@@H]1O[C@H](CO)[C@@H](O)[C@H](O)[C@@H]1O` , please?
A) -5.98

---

Below, each entry is listed with its recorded ΔG.
- Target Under Test: LecB (Pseudomonas aeruginosa, UniProt Q9HYN5)
- Stated Conditions: 25°C; mean ± SD of minimum three titrations (5: indirect titration with 3, two titrations)
Form entry: value (kcal/mol) — number only.

OC[C@H]1OC[C@@H](O)[C@@H](O)[C@@H]1O
-5.69
OC1[C@H](O)COC[C@H]1O
-7.29

Q) Look up ΔG: CC1OCC(O)C(O)C1O (centres unmarked)
A) -8.34

Q) Follow-up entry: `C[C@@H]1O[C@H](C)[C@@H](O)[C@H](O)[C@@H]1O`
A) -6.5

Q) Then `C[C@@H]1O[C@H](CO)[C@@H](O)[C@H](O)[C@@H]1O` ?
A) -6.57
